The values you see were collected from PubChem BioAssay.

- method: CREB reporter modulators under forskolin, primary screen, cell-based, PC12, CRE-LacZ reporter, forskolin-stimulated (AID 1146);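 note: PC12 cells with 6xCRE LacZ reporter stimulated by forskolin 10 µM; beta-galactosidase reporter signal reflecting CREB driven transcription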
- condition.context: luminescence, 4.5 h, higher = more signal, called active from +8 up or from −8 down
Kindly state z-score for each of the entries shown.
The reply should be a number, written without any unit.

-- ask Which z-score is listed for CO[C@@H]1COC(=O)[C@H](C)NC(=O)[C@@H](C)COC(=O)CCC[C@H]1C ?
-- reply 0.396

-- ask Request: CCOC(=O)NN=C1C[C@@H](O)[C@@H](O)[C@@H]2[C@@H]3C(=O)N(C4CCCCC4)C(=O)[C@@H]3CC[C@H]12
-- reply 0.174

-- ask Request: C=C(/C(=C/C[C@@H](OC(=O)c1ccncc1)c1ccc(OCCO)cc1)c1cnc2ccccc2c1)C(C)C
-- reply -0.209

-- ask Request: C[C@@H]1CCC2C(=O)N(Cc3ccccc3)C[C@@H](O)CN2[C@H]1c1ccc(Br)cc1 (stereo partly drawn)
-- reply -0.284

-- ask Request: CCOC(=O)CCN1C(=O)[C@H]2[C@H]3[C@H](O)[C@H](O)CC(=NOCc4ccccc4)[C@@H]3CC[C@H]2C1=O
-- reply 0.0433

-- ask Request: C=C(COC)/C(=C/C[C@H](OC(=O)c1ccncc1)c1ccc(CO)o1)c1cc(C(=O)OC)ccc1OC
-- reply 0.877

-- ask Request: C[N+](C)(C)CCCCCCNC(=O)[C@@H]1C[C@@H]2C(=O)N3CCC[C@H]3C(=O)N2[C@@H]1c1cccc(OCCO)c1
-- reply 0.27

-- ask Request: COc1ccc(O[C@H]2C=C[C@@H](c3ccccc3)O[C@@H]2COC(=O)CCC(C)=NO[C@@H](C)c2cc(-c3c(C)cc(C)cc3C)no2)cc1
-- reply 0.65

-- ask Request: NC(=O)NCC#Cc1ccc2c(c1)[C@]1(C(=O)N2)[C@H](c2ccc(O)cc2)N2[C@H](c3ccccc3)[C@H](c3ccccc3)OC(=O)[C@H]2[C@@H]1C(=O)N1CCCCCCC1
-- reply -0.674

-- ask Request: C[C@H]1Cc2c(-c3ccccc3)nc3c(c2CO1)CN(CCOc1ccccc1)CC3
-- reply -1.46

-- ask Request: COC(=O)[C@H](C)NC(=O)CCC1CC(OC(=O)NCc2cccc3ccccc23)CC2(CCCC(COC(=O)NCCc3ccc(Cl)cc3)O2)O1 (stereo partly drawn)
-- reply 0.45

-- ask Request: C=CCOC(=O)[C@H]1[C@@H]2C(=O)O[C@@H](c3ccccc3)[C@@H](c3ccccc3)N2[C@@H](c2ccc(OCCOC(=O)[C@H]3C[C@H]4C(=O)N5CCC[C@H]5C(=O)N4[C@H]3c3cccc(OCCO)c3)cc2)[C@]12C(=O)Nc1ccc(I)cc12
-- reply 0.437

-- ask Request: COCCNC(=O)OCC1CCCC2(CC(OC(=O)NCCc3ccc(F)cc3)CC(CCC(=O)N[C@@H](C)C(=O)OC)O2)O1 (stereo partly drawn)
-- reply -0.448

-- ask Request: COC(=O)CC=C[C@@H](C)[C@@H](C=NO[C@H](C)c1cn([C@@H]2COC[C@H]2O)nn1)OC
-- reply -0.0094

-- ask Request: CCOC(=O)[C@H](CC(C)C)NC(=O)CCC1CC(OC(=O)NCc2cccc3ccccc23)CC2(CCCC(COC(=O)NCCN3CCOCC3)O2)O1 (stereo partly drawn)
-- reply 1.14

-- ask Request: COCCOC(=O)N1C(=O)[C@@]2(c3cc(C#CCNC(N)=O)ccc31)[C@H](c1ccccc1OCCO)N1[C@H](c3ccccc3)[C@H](c3ccccc3)OC(=O)[C@H]1[C@@H]2C(=O)N1CCN(c2ncccn2)CC1
-- reply 2.16

-- ask Request: O=C1[C@H]2[C@H]3[C@H](O)[C@H](O)CC(=NO[C@@H]4O[C@H](CO)[C@@H](O)[C@H](O)[C@H]4O)[C@H]3CC[C@H]2C(=O)N1Cc1ccc2c(c1)OCO2
-- reply -0.576

-- ask Request: CO[C@@H]1COC(=O)CCC[C@@H](C)[C@H](OC)COC(=O)[C@H](Cc2ccccc2)NC(=O)CC=C[C@H]1C
-- reply 1.18

-- ask Request: CC1CC/C=C\[C@H]2OC34C=CCN(Cn5nnc6ccccc65)C(=O)[C@H]3N(CCO)C(=O)[C@@H]4C2C(=O)O1 (stereo partly drawn)
-- reply -1.01

-- ask Request: CO[C@H]1O[C@H](CO)[C@@H](OC(=O)Nc2ccc(C#N)cc2)[C@H](OC(=O)c2cc3ccccc3[nH]2)[C@H]1OC(=O)c1cc2ccccc2[nH]1
-- reply -1.03

-- ask Request: CN(C)c1ccc(C(O)C2C=CC3C(=O)N(c4ccccc4)C(=O)C3N2Nc2ccccc2F)cc1 (stereo not drawn)
-- reply 1.03

-- ask Request: CC(=O)OC[C@H]1O[C@H](CCON=C[C@@H](C)[C@H](OCc2ccccc2)C(C)C)C=C[C@@H]1OC(C)=O
-- reply 0.598

-- ask Request: O=C1[C@H]2[C@H]3[C@H](O)[C@H](O)CC(=NOCc4ccccc4)[C@H]3CC[C@H]2C(=O)N1C[C@@H]1CCCO1
-- reply -0.471

-- ask Request: O=C1[C@H]2[C@H]3[C@H](O)[C@H](O)CC(=NOC[C@@H](O)COCc4ccco4)[C@H]3CC[C@H]2C(=O)N1c1cccc(Oc2ccccc2)c1
-- reply 0.452

-- ask Request: C[C@@H]1CC[C@H]2C(=O)O[C@H](COc3ccc(C(C)(C)C)cc3)CN2[C@H]1c1ccc(Br)cc1
-- reply 0.203

-- ask Request: CC(C)(C)N1CC=CC23O[C@@H]4C=CCCOC(=O)C4[C@H]2C(=O)N(CCCCCO)[C@@H]3C1=O (stereo partly drawn)
-- reply -0.329

-- ask Request: CC(C)CON=C1[C@H]2CCn3c(=O)n(-c4ccccc4)c(=O)n3[C@H]2[C@H](O)[C@@H]2O[C@H]12
-- reply 0.148

-- ask Request: COCC1=C2[C@@H](CCc3ccccc3)OB(O)C[C@@H]2n2c(=O)n(-c3ccccc3)c(=O)n2C1
-- reply -0.714
